- experimental_system: T1, AAV9 (adeno-associated virus 9)
- T1 construct: also called adeno-associated virus serotype 9
- experiment_summary: SPR, AAV amine-coupled to CM5 chip;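 note: nanobodies flowed as analyte at seven concentrations spanning 1–100 nM over immobilized AAV (500–800 RU), kinetic constants derived by fitting the binding curves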
In this section, each of the binders is paired with its reported kon.

binder | kon
A4-071 (VHH) VHH: VQLQESGGGAVQAGGSLRLSCAASGSTFSINTMGWYRQAPGKQRELVATVTRGGSTNYGDFVKGRFTISRDNAKNTVYLQMNTLRPEDTAVYYCHLDEVRQSSWTTSNLWGQGTQVTVSS | 57000 M⁻¹ s⁻¹
A4-088 (VHH) VHH: VQLQESGGGLVQTGGSLRLSCAASGSRFSLNTMGWYRQAPGKQRELVAAVTRGGNTNYGDFVKGRFTISRDNAKNTVYLQMNSLRPEDTAVYYCHVDELRESSWTTSNLWGQGTQVTVSS | 7570 M⁻¹ s⁻¹
A4-064 (VHH) VHH: VQLQESGGGLVQSGGSLRLSCAASGRNFSLNTVGWYRQAPGKQRELVATVTSGGGTNYAGSVKGRFTISRDNAKNTVYLQMNSLRPEDTAVYYCHVDEVRESTWTTSNLWGQGTQVTVSS | 3050 M⁻¹ s⁻¹
A4-094 (VHH) VHH: VQLQESGGGLVQPGGSLRLSCVASGSIFVINTMGWYRQAPGKQRELVATVTRDGGTNYADSVKGRFTISRDNAKNTVYLQMNSLRPEDTAVYYCHIDEIRESSWTTSNLWGQGTQVTVSS | 9600 M⁻¹ s⁻¹
